# Tested system: Ubiquitin carboxyl-terminal hydrolase 10 (Homo sapiens) (UniProt Q14694)
# Sequence (Q14694 whole entry, looked up): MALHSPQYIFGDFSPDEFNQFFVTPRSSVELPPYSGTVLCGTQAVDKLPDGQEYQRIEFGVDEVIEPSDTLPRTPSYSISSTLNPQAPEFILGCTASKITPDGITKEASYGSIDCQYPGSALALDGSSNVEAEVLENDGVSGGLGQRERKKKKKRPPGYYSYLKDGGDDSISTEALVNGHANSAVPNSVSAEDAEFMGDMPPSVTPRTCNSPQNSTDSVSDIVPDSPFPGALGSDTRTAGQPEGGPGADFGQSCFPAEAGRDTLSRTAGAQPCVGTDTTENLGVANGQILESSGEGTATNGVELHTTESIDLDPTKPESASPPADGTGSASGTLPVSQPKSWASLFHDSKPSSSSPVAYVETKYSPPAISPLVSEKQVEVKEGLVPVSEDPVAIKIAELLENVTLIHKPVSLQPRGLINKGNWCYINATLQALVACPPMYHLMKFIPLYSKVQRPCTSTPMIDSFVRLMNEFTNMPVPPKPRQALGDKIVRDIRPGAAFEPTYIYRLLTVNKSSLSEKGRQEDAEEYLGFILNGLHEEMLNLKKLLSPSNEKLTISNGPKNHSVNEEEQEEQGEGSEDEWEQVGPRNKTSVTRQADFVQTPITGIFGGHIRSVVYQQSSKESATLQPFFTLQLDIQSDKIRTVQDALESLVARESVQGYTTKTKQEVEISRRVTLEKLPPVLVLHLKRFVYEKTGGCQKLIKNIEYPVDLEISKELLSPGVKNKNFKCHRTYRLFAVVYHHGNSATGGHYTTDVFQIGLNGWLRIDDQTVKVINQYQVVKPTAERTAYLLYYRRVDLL
# Method description: blocks human USP10 ubiquitin-rhodamine cleavage (AID 1645856)
# Assay conditions: purified USP10, Ub-rhodamine fluorescence, 60 min; at 20 µM
Among all 47,000 compounds or so, about 510 (1.1%) were called active. No stated cut-off is given here; in the data, active means inhibition above about 30%; inactive means the rest. Only a selection was taken, and actives are over-represented in it overall.
Outcome codes: active, inactive

INSERT INTO measurements (compound, category) VALUES
  ('CCCCN(C)c1ccc2nnc(CCc3nc(-c4cc(OC)cc(OC)c4)no3)n2n1', 'inactive'),
  ('O=S(=O)(c1cccc2nonc12)N1CCC(n2cccc2)CC1', 'inactive'),
  ('COc1ccc2[nH]c3c(N4CCN(C5CCCCC5)CC4)ncnc3c2c1', 'inactive'),
  ('COc1cccc(NC(=O)c2nn(-c3ccc(F)cc3)c(OC)cc2=O)c1', 'inactive'),
  ('FC(F)(F)c1cccc(CN2CCCn3c(nc4ccccc43)C2)c1', 'inactive'),
  ('CNC(=O)N1C[C@H]2C[C@H](C(=O)Nc3ccc4c(c3)OCO4)[C@@H](C1)O2', 'inactive'),
  ('Cn1c(N2CCN(C(=O)c3ccc(F)cc3)CC2)cc(=O)n(C)c1=O', 'inactive'),
  ('CCOc1nccnc1N1CCC(N(C)S(=O)(=O)C2CC2)C1 (stereo not drawn)', 'inactive'),
  ('CC(=O)Nc1sc2c(c1C(c1cccc(F)c1)N1CCN(CCO)CC1)CCCC2 (stereo not drawn)', 'inactive'),
  ('O=C(c1ncccn1)N1CCCCC1c1ncc(Cc2cccc(F)c2)o1 (stereo not drawn)', 'inactive'),
  ('O=C(Nc1ccccc1Br)c1ncoc1-c1cccs1', 'inactive'),
  ('COCCNC(=O)c1cccc(C2CCCN(C(=O)Nc3ccccc3)C2)c1 (stereo not drawn)', 'inactive'),
  ('CC(C)n1c(C2CCN(C(=O)Nc3ccc4c(c3)CCC4)C2)nc2ccncc21 (stereo not drawn)', 'inactive'),
  ('O=C(NC1CCCC1)c1cc(-c2cccnc2)n(-c2ccc(F)cc2)n1', 'inactive'),
  ('O=C(Oc1ccc(Oc2ccccc2)cc1)c1ccc([N+](=O)[O-])cc1', 'inactive'),
  ('N#Cc1ccccc1OCC(=O)Nc1ccc(-c2cn3ccsc3n2)cc1', 'inactive'),
  ('O=C(COc1ccc2ccccc2c1)NCc1nnnn1-c1ccc(Cl)cc1', 'inactive'),
  ('CCOc1ccc(-c2noc(-c3nn(-c4cccc(OC)c4)ccc3=O)n2)cc1', 'inactive'),
  ('N#Cc1ccc(NC(=O)Nc2cccn(Cc3ccccc3F)c2=O)cc1', 'active'),
  ('O=C(NCC1CCCCC1)C1CCN(C2=NS(=O)(=O)c3ccccc32)CC1', 'inactive'),
  ('O=C(NCc1ccc2c(c1)OCO2)c1cn(-c2cccc(Cl)c2)nn1', 'inactive'),
  ('O=C1NCCCn2cc(S(=O)(=O)NCc3ccc4c(c3)OCO4)cc21', 'inactive'),
  ('O=C(Cn1cccc(-c2nc(-c3ccccc3)no2)c1=O)Nc1ccccc1F', 'inactive'),
  ('CCN1CCN(Cc2nc(-c3ccc(N4CCCCC4)nc3)no2)CC1', 'inactive'),
  ('COc1ccc(/C=C(\C(=O)N(C)C2CCCCC2)n2ccccc2=O)cc1', 'inactive'),
  ('Fc1ccccc1CSc1nnc(C2CCNCC2)o1', 'inactive'),
  ('COc1ccc(CNC2C3=C(CCCC3)C(=O)N2CCc2ccc(Cl)cc2)cc1 (stereo not drawn)', 'inactive'),
  ('CCn1c(=O)c(C(=O)N2CCN(c3cccc(C)c3)CC2)nc2cccnc21', 'inactive'),
  ('COc1ccccc1C1CC(c2c(O)n(C)c(=O)n(C)c2=O)=Nc2ccccc2S1 (stereo not drawn)', 'inactive'),
  ('CCOc1cccc(C2CC(=O)Nc3c2c(C)nn3-c2nncc(-c3ccc(F)cc3)n2)c1 (stereo not drawn)', 'inactive'),
  ('CC(=O)N1CCc2cc(C(O)CN3CCN(c4ccccc4)CC3)ccc21 (stereo not drawn)', 'inactive'),
  ('COc1ccc(NC(=O)CSc2cn(CC(=O)N3CCCC3)c3ccccc23)cc1', 'inactive'),
  ('CC(c1ccncc1)n1nccc1NC(=O)c1cccnc1Sc1ccccc1 (stereo not drawn)', 'inactive'),
  ('O=S(=O)(Cc1ccccc1)N1CCC2(CCN(Cc3cccc(F)c3)C2)C1 (stereo not drawn)', 'inactive'),
  ('CN1Cc2cccc(C(=O)N(C)c3nc4c(s3)CCc3occc3-4)c2C1=O', 'inactive'),
  ('Cc1ccccc1CNC(=O)Cn1c(=O)ccn(Cc2ccc(F)cc2)c1=O', 'inactive'),
  ('Cc1cc(Cl)cc(C)c1OCC(=O)NC1CCCc2ccccc21 (stereo not drawn)', 'inactive'),
  ('COc1cccc(NC(=O)C(Sc2cccc(NC(=O)c3ccccc3F)c2)c2ccccc2)c1 (stereo not drawn)', 'active'),
  ('O=C(CCCn1c(=O)c2ccccc2n(Cc2ccccc2F)c1=O)NC1CCCC1', 'inactive'),
  ('CCOC(=O)N1CCN(Cc2nc3ccc([N+](=O)[O-])cc3c(=O)n2-c2cccc(OC)c2)CC1', 'inactive'),
  ('Cn1c(=O)[nH]c(=O)c2c1nc(N1CCCCCC1)n2CCCSc1nc2ccccc2s1', 'inactive'),
  ('CN1c2ccccc2O[C@@H]2CC[C@@H](NC(=O)Cn3cccn3)[C@@H](O)[C@@H]21', 'inactive'),
  ('CN(c1ccc(F)cc1)c1ccc2ccc(C(=O)N3CCCC(O)C3)cn12 (stereo not drawn)', 'inactive');

###

# Tested system: Ubiquitin carboxyl-terminal hydrolase 10 (Homo sapiens) (UniProt Q14694)
# Method description: blocks human USP10 ubiquitin-rhodamine cleavage (AID 1645856)
# Assay conditions: purified USP10, Ub-rhodamine fluorescence, 60 min; at 20 µM; hits give high values
About 510 (1.1%) of roughly 47,000 compounds were called active. The sample holds actives, similar compounds and a random draw of the others, so the mix is not that of the screen.
Property: inhibition; scope: individual molecules
Result type: inhibition (%)

INSERT INTO results (molecule, observed) VALUES
  ('Oc1cccc2nc3c(O)cccc3nc12', 41.5),
  ('CNc1ccc(-c2noc([C@@H]3CCCN3C3CCN(C)CC3)n2)cn1', -0.38),
  ('O=S(=O)(Nc1cccc(O)c1)c1ccc2oc3ccc(S(=O)(=O)Nc4cccc(O)c4)cc3c2c1', 54.6),
  ('COc1ccc(-c2noc(-c3ccc(N(C)Cc4ccco4)nn3)n2)cc1', 0.989),
  ('COc1cccc(NS(=O)(=O)c2ccc(-c3coc(C)n3)cc2)c1', 2.04),
  ('COc1cccc(C(O)c2ncc(-c3ccc4ccccc4c3)[nH]2)c1 (stereo unspecified)', -5.14),
  ('COc1cccc(O[C@@H]2C[C@@H](NC(=O)c3ncoc3C)[C@H](O)[C@H]2O)c1', -1.35),
  ('COc1cnc(CSc2ccccc2)cc1OCC(=O)Nc1ccc2c(c1)OCO2', 0.813),
  ('CC(C)Cc1cc(-c2nn3c(-c4ccccc4Cl)nnc3s2)n[nH]1', 13.8),
  ('O=S(=O)(c1cc(-c2nnc(C3CC3)o2)co1)N1CCCCC1', -3.39),
  ('O=C(COC(=O)C(Cc1c[nH]c2ccccc12)NC(=O)c1ccccc1Cl)c1ccccc1F (stereo unspecified)', 6.57),
  ('Cc1nccc(N2CCCC2c2cnc(-c3ncc[nH]3)cn2)n1 (stereo unspecified)', -5.73),
  ('CCCCCCSc1ncnc2c1sc1nc(-c3ccccc3)c3c(c12)CC(C)(C)OC3', -3.17),
  ('Cc1cc(=O)n(CC(=O)Nc2ccc3c(c2)OCO3)c2c1c(-c1ccccc1)nn2-c1ccccc1', 25),
  ('O=C1CCCC2=C1C(c1ccc(C(=O)O)cc1)n1ncc(C(=O)Nc3ccc(F)cc3)c1N2 (stereo unspecified)', -5.67),
  ('CC1(C(=O)NC2CCCCCC2)Cc2ccccc2C(=O)N1C1CCCCC1 (stereo unspecified)', 3.98),
  ('O=C(O)C1CCCN1C1=NS(=O)(=O)c2ccccc21 (stereo unspecified)', 0.971),
  ('CCN1C(=O)[C@H]2CN(CCOC)C[C@H]2C12CCN(C(=O)Nc1ccccc1)CC2', 0.649),
  ('Cn1c2c(c(=O)n(C)c1=O)[C@@H]1c3c(ccc4ccccc34)OC[C@@H]1CO2', -4.17),
  ('Cn1c(SCC(N)=O)nnc1-c1cc2ccccc2o1', -1.83),
  ('C/C=C(\Cl)C1=CC(=O)[C@]23C[C@H]2[C@@]2(C)CO[C@@]1(O)[C@@]3(O)O2', -13.4);

###

# Tested system: Ubiquitin carboxyl-terminal hydrolase 10 (Homo sapiens)
# Method description: blocks human USP10 ubiquitin-rhodamine cleavage (AID 1645856)
# Assay conditions: purified USP10, Ub-rhodamine fluorescence, 60 min; at 20 µM
The campaign covered roughly 47,000 compounds. About 510 (1.1%) were called active. Rule as the data show it: active = inhibition above about 30%; inactive = the rest. This excerpt belongs to a sample that is enriched for actives.
Outcome codes: True = active, False = inactive

INSERT INTO assay_data (molecule, category) VALUES
  ('CCOC(=O)C1CCN(C(c2cccnc2)c2c(NC(C)=O)sc3c2CCCC3)CC1 (stereo not given)', 'False'),
  ('c1ccc(OCCn2nc(C3CCN(C4CCOCC4)CC3)c3nccnc32)cc1', 'False'),
  ('COc1ccc(-c2cc(C(=O)Nc3ncc(C)s3)c3ccccc3n2)cc1OC', 'False'),
  ('Cc1ccc(N2CC(C(=O)N3CCC(C(=O)Nc4ccc(F)cc4F)CC3)CC2=O)cc1 (stereo not given)', 'False'),
  ('COc1ccc(CCNC(=O)CCCn2c(=O)c3ccccc3n(CC(=O)OCc3ccccc3)c2=O)cc1OC', 'False'),
  ('CN(C)c1nc(C2CCN(C(=O)c3ccccc3)CC2)cn2nccc12', 'False'),
  ('CCc1nnc(CN2CCC(C3CCCCCN3C(=O)NC(C)C)CC2)o1 (stereo not given)', 'False'),
  ('Cc1ccc(CNC(=O)CC(c2ccccc2)c2ccccc2)cc1', 'False'),
  ('Cc1ccc(CNC(=O)CCCn2c(=O)c3sccc3n(CC(=O)OCc3ccccc3)c2=O)cc1', 'True'),
  ('Cc1ccc(S(=O)(=O)N2CCCC2C(=O)N2CCN(c3cccc(Cl)c3)CC2)cc1 (stereo not given)', 'False');
